Test system: WPMY1-CANX-COX4
Assay: lowest phenotypically active concentration; higher = less potent
Details: treatment time: 24 h
Structures can show the parent of a compound that is named as a salt.
parameter: lowest phenotypically active concentration

[[record]]
molecule = "C/C(=C/c1ccc(C(=O)O)cc1)c1ccc2c(c1)C(C)(C)CCC2(C)C"
recordedmeasurement = "9 µM"

[[record]]
molecule = "CC[C@]12CCCN3CCc4c(n(c5ccccc45)C(=O)C1)[C@@H]32 [Eburnamonine (-)]"
recordedmeasurement = "9 µM"

[[record]]
molecule = "COc1ccc(C[C@H](N)C(=O)N[C@H]2[C@@H](O)[C@H](n3cnc4c(N(C)C)ncnc43)O[C@@H]2CO)cc1 [Puromycin dihydrochloride]"
recordedmeasurement = "1 µM"

[[record]]
molecule = "CN1CC[C@H](c2c(O)cc(O)c3c(=O)cc(-c4ccccc4Cl)oc23)[C@H](O)C1 [Flavopiridol hydrochloride]"
recordedmeasurement = "≤ 0.3 µM"

[[record]]
molecule = "CCN1C(=O)NC(c2ccccc2)C1=O (stereo not drawn) [ethotoin]"
recordedmeasurement = "3 µM"

[[record]]
molecule = "COc1cc2c(Nc3ccc(Br)cc3F)ncnc2cc1OCC1CCN(C)CC1 [vandetanib]"
recordedmeasurement = "3 µM"

[[record]]
molecule = "CCN1CCN(C(c2cccnc2)c2cc(Cl)c3cccnc3c2O)CC1 (stereo not drawn)"
recordedmeasurement = "9 µM"

[[record]]
molecule = "CO[C@H]1C=CC=C(C)C(=O)NC2=CC(=O)C(NCCN(C)C)=C(C[C@@H](C)C[C@H](OC)[C@H](O)[C@@H](C)C=C(C)[C@@H]1OC(N)=O)C2=O [17-DMAG hydrochloride]"
recordedmeasurement = "≤ 0.3 µM"

[[record]]
molecule = "O=C1/C(=C\\c2ccncc2)CCC/C1=C\\c1ccncc1"
recordedmeasurement = "3 µM"

[[record]]
molecule = "Clc1ccc(N/N=C(\\c2ccccc2)c2ccccn2)nc1"
recordedmeasurement = "1 µM"

[[record]]
molecule = "Cc1ccc(NC(=O)CCCCCC(=O)Nc2ccccc2N)cc1"
recordedmeasurement = "3 µM"

[[record]]
molecule = "CC/C(=C(/c1ccccc1)c1ccc(OCCN(C)C)cc1)c1ccccc1 [tamoxifen]"
recordedmeasurement = "9 µM"

[[record]]
molecule = "O=C(O)c1ccc(Nc2ncc3c(n2)-c2ccc(Cl)cc2C(c2c(F)cccc2F)=NC3)cc1"
recordedmeasurement = "3 µM"

[[record]]
molecule = "CCN(CC)CCCC(C)Nc1ccnc2cc(Cl)ccc12 (stereo not drawn) [chloroquine]"
recordedmeasurement = "3 µM"

[[record]]
molecule = "O=C(NCCCNc1nc(Nc2cccc(NC(=O)N3CCCC3)c2)ncc1I)c1cccs1"
recordedmeasurement = "3 µM"

[[record]]
molecule = "O=S(c1ccccc1)c1ccc2nnnn2n1 (stereo not drawn)"
recordedmeasurement = "9 µM"

[[record]]
molecule = "Cc1noc(C)c1-c1ccc2c(c1)nc(CCc1ccc(OCCCN(C)C)cc1)n2CCN1CCOCC1"
recordedmeasurement = "9 µM"

[[record]]
molecule = "Nc1ccc(-c2cccc3c(=O)cc(N4CCOCC4)oc23)cc1"
recordedmeasurement = "3 µM"

[[record]]
molecule = "O=C(O)C[C@H](O)C[C@H](O)/C=C/c1c(C2CC2)nc2ccccc2c1-c1ccc(F)cc1 [Pitavastatin calcium]"
recordedmeasurement = "1 µM"

[[record]]
molecule = "COc1cc2ncnc(Nc3ccc(O)c(Br)c3)c2cc1OC"
recordedmeasurement = "3 µM"

[[record]]
molecule = "Cc1cc(/N=N/c2ccc(S(=O)(=O)Nc3ccccn3)cc2)c(N)cc1O"
recordedmeasurement = "9 µM"

[[record]]
molecule = "O[C@H](CNC[C@H](O)[C@@H]1CCc2cc(F)ccc2O1)[C@@H]1CCc2cc(F)ccc2O1 [nebivolol]"
recordedmeasurement = "9 µM"

[[record]]
molecule = "N#CC[C@@H](C1CCCC1)n1cc(-c2ncnc3[nH]ccc23)cn1 [ruxolitinib-(S)]"
recordedmeasurement = "9 µM"

[[record]]
molecule = "CC(C)c1cnn2c(NCc3ccccc3)cc(NCCCCCCN)nc12 [BS 181 dihydrochloride]"
recordedmeasurement = "9 µM"

[[record]]
molecule = "COc1cc(C)c(/C=C/C(C)=C/C=C/C(C)=C/C(=O)O)c(C)c1C [acitretin]"
recordedmeasurement = "9 µM"

[[record]]
molecule = "Cc1c(C(=O)N2CCOc3ccc(-c4ccc(N)nc4)cc3C2)ccc(S(C)(=O)=O)c1F"
recordedmeasurement = "3 µM"

[[record]]
molecule = "C[C@H]1COCCN1c1cc(C2(S(=O)(=O)C3CC3)CC2)nc(-c2ccc(NC(=S)NCCO)cc2)n1"
recordedmeasurement = "≤ 0.3 µM"

[[record]]
molecule = "Cc1c(O)cccc1C(=O)N[C@@H](CSc1ccccc1)[C@H](O)CN1C[C@H]2CCCC[C@H]2C[C@H]1C(=O)NC(C)(C)C [nelfinavir]"
recordedmeasurement = "9 µM"


Values were extracted from the supplement of paper PMC7411054.
